- method: Solubility of 6 in extraction solvents
- Format: physicochemical
- measurement_context: organic solvent or mixture; Solvent IPAc
observable: solubility
Hi, when you answer, please include the unit after the number. Thanks!

## Input What measured solubility goes with `CC(C)(C)OC(=O)NC1(c2ccc(-n3c(-c4cccnc4N)nc4ccc(-c5ccccc5)nc43)cc2)CCC1` ?
## Output 2900 µg/mL

* * *

- method: Solubility of 3 in HOAc, 2-MeTHF and THF
- Type: physicochemical
- measurement_context: organic solvent or mixture; in HOAc
observable: solubility (mg/mL)
Give the value in mg/mL but do not write mg/mL after it.

## Input Return reported solubility; argument: `CC(C)(C)OC(=O)NC1(c2ccc(Nc3nc(-c4ccccc4)ccc3[N+](=O)[O-])cc2)CCC1`
## Output 24.8

* * *

- method: Solubility of 3 in 2-MeTHF/heptane mixtures
- Assay type: physicochemical
- measurement_context: 2-MeTHF/heptane 5/5 (v/v), organic solvent or mixture; 2-MeTHF/heptane (v/v) 5/5, 25° C.
observable: solubility (µg/mL)
Just the number in µg/mL, nothing appended.

## Input Name the reported solubility value associated with the compound `CC(C)(C)OC(=O)NC1(c2ccc(Nc3nc(-c4ccccc4)ccc3[N+](=O)[O-])cc2)CCC1`
## Output 4500

* * *

- method: Solubility of 3 in 2-MeTHF/heptane mixtures
- Assay type: physicochemical
- measurement_context: 2-MeTHF/heptane 6/4 (v/v), organic solvent or mixture; 2-MeTHF/heptane (v/v) 6/4, 25° C.
observable: solubility (µg/mL)
Write the answer as a number in µg/mL, unit excluded.

## Input If you can, please state the reported solubility value of `CC(C)(C)OC(=O)NC1(c2ccc(Nc3nc(-c4ccccc4)ccc3[N+](=O)[O-])cc2)CCC1` .
## Output 8000

* * *

- method: Solubility of 6 in extraction solvents
- Format: physicochemical
- measurement_context: organic solvent or mixture; Solvent MTBE
- Procedure: While this initial trial was very promising, in subsequent experiments on larger scale, complications were encountered. One issue was that during the neutralization of acetic acid, emulsions were often obtained. Multiple solvent systems were investigated and the solubility of 6 was evaluated to estimate the efficiency of the extraction (Table 17).
observable: solubility (µg/mL)
Expressed in µg/mL, but write only the number.

## Input Quick check: solubility of CC(C)(C)OC(=O)NC1(c2ccc(-n3c(-c4cccnc4N)nc4ccc(-c5ccccc5)nc43)cc2)CCC1 [Compound 6] ?
## Output 690

* * *

- method: Solubility of 6 in extraction solvents
- Assay type: physicochemical
- measurement_context: organic solvent or mixture; Solvent THF
observable: solubility

## Input Name the reported solubility value associated with the compound `CC(C)(C)OC(=O)NC1(c2ccc(-n3c(-c4cccnc4N)nc4ccc(-c5ccccc5)nc43)cc2)CCC1`
## Output 110 mg/mL

* * *

- method: Solubility of 7 in a selection of solvents
- Type: physicochemical
- measurement_context: organic solvent or mixture; Solvent MTBE
observable: solubility (µg/mL)
Field format: number, assumed µg/mL, no unit text.

## Input Give the measured solubility of Nc1ncccc1-c1nc2ccc(-c3ccccc3)nc2n1-c1ccc(C2(N)CCC2)cc1 [Compound 7] .
## Output 760

* * *

- method: Solubility of 3 in HOAc, 2-MeTHF and THF
- Assay type: physicochemical
- measurement_context: organic solvent or mixture; in 2-MeTHF
observable: solubility (mg/mL)
Kindly provide the numeric value in mg/mL only, without the unit symbol.

## Input So what does the record say about solubility for `CC(C)(C)OC(=O)NC1(c2ccc(Nc3nc(-c4ccccc4)ccc3[N+](=O)[O-])cc2)CCC1` ?
## Output 100

This collection of values is drawn from patent US9834556B2.
